B1: Chromodomain-helicase-DNA-binding protein 7, residues 2564 to 2605; numbered along this chain, Q9P2D1 (parent)
chain: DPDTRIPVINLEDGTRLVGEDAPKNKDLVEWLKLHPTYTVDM

- Variants of: B1
- procedure.text: abundance fitness (aPCA) (normalised: wild type 0, dead -1); higher = more abundant; growth selection in yeast, the domain comes from the species named
- reported.conditions: Homo sapiens
Given measured abundance fitness, output criterion met if it is greater than or equal to -0.6 and criterion not met if not.

1. DPDTRIPVINLEDGTRLVGEDAPKNKDLVMWLKLHPTYTVDM [E30M] | criterion met

[ask] Does the reported abundance fitness for DPDTRIPVINLEDGTRLVVEDAPKNKDLVEWLKLHPTYTVDM [G19V] fall at or above the -0.6 mark?
[reply] criterion not met

[ask] Does the reported abundance fitness for DPFTRIPVINLEDGTRLVGEDAPKNKDLVEWLKLHPTYTVDM [D3F] fall at or above the -0.6 mark?
[reply] criterion met

[ask] Does the reported abundance fitness for DPDTRIPVINLEDGTRLVGEDAPKNKDLVEWLKYHPTYTVDM [L34Y] fall at or above the -0.6 mark?
[reply] criterion met

[ask] Does the reported abundance fitness for DPDTRIPHINLEDGTRLVGEDAPKNKDLVEWLKLHPTYTVDM [V8H] fall at or above the -0.6 mark?
[reply] criterion met

[ask] Does the reported abundance fitness for DPDTRIPVINLEDGTRLVGEDAPKNKDLVEWLKLHPTGTVDM [Y38G] fall at or above the -0.6 mark?
[reply] criterion met

[ask] Does the reported abundance fitness for DPDTRIPVINLEDTTRLVGEDAPKNKDLVEWLKLHPTYTVDM [G14T] fall at or above the -0.6 mark?
[reply] criterion met

[ask] Does the reported abundance fitness for DPDTRIPVINLEDGTRLVGEDAPMNKDLVEWLKLHPTYTVDM [K24M] fall at or above the -0.6 mark?
[reply] criterion met

[ask] Does the reported abundance fitness for APDTRIPVINLEDGTRLVGEDAPKNKDLVEWLKLHPTYTVDM [D1A] fall at or above the -0.6 mark?
[reply] criterion not met

[ask] Does the reported abundance fitness for DPDTRIPVINLEDGTRLVGEDAPKNKDLVEWLKLHPTYFVDM [T39F] fall at or above the -0.6 mark?
[reply] criterion not met

[ask] Does the reported abundance fitness for DPDTRIPVINLEDGTRLVGEDAPKNPDLVEWLKLHPTYTVDM [K26P] fall at or above the -0.6 mark?
[reply] criterion met
